These entries and their values trace back to a melting point compilation (Tetko et al.; mined from patent text by program, amines drawn as free bases though some values may be those of a salt).

melting point values for the compounds below.

{"Compound": "COC(=O)C=C(Nc1ccccc1C#N)C(=O)OC", "melting point": "116 to 118 °C"}
{"Compound": "CC(O)Cn1cnc2c(N)nc3ccccc3c21 (stereo not given)", "melting point": "216 to 221 °C"}
{"Compound": "O=C(O)c1cccc(C(=O)C=Cc2ccc(OCc3ccccc3)cc2)c1O", "melting point": "174 to 175 °C"}
{"Compound": "Cc1cc(F)c(N)cc1N", "melting point": "112 °C"}
{"Compound": "Cc1c(C(F)(F)F)nc(C(F)(F)F)c(C(=O)O)c1O", "melting point": "155 to 159 °C"}
{"Compound": "CNC(=O)OCc1c(COC(=O)NC)c(-c2ccc(OC)cc2)n2c1Cc1ccccc1C2", "melting point": "182 to 184 °C"}
{"Compound": "COc1cc(OC)c2c(=O)[nH]c(-c3ccc(OCCNC(C)C)c(-c4ccccc4S(C)(=O)=O)n3)nc2c1", "melting point": "178 to 180 °C"}
{"Compound": "CCCCCCCNc1cccc2c1CN(c1cc(C)cc(C)c1)C2=O", "melting point": "68 to 69 °C"}
{"Compound": "CC(C)CCS(=O)(=O)NC(=O)/C=C/c1cc(C2CC2)nn1Cc1ccc(C(F)(F)F)cc1Cl", "melting point": "145 to 147 °C"}
{"Compound": "CCC(=O)Nc1ccc(C(=O)c2nc(-c3cccc(C(=O)O)c3)c3ccccn23)cc1OC", "melting point": "145 °C"}
{"Compound": "COc1ccc(CS(=O)(=O)/C(=C/c2ccc(Br)cc2)C(=O)c2ccc(Br)cc2)cc1", "melting point": "146 to 150 °C"}
{"Compound": "CCCNC(=O)c1ccc(C=O)cc1", "melting point": "71 to 74 °C"}
{"Compound": "CC(=O)Nc1ccccc1CN1CCC(CCC(=O)c2ccc(Nc3ncnc4c3CCC4)cc2)CC1", "melting point": "219 to 222 °C"}
{"Compound": "COc1cc2ncnc(N3CCN(C(=S)NCc4ccc(N(C)C)cc4)CC3)c2cc1OC", "melting point": "177 to 178 °C"}
{"Compound": "COC(=O)c1ccc(Cl)c(C=O)c1SC", "melting point": "66.5 to 68.1 °C"}
{"Compound": "Oc1ccc2c(c1)OCC1c3ccccc3OC21 (stereo not given)", "melting point": "148 to 152 °C"}
{"Compound": "CC(C)(C)C(=O)COc1ccc(-c2ccc(Cl)cc2)cc1", "melting point": "90 °C"}
{"Compound": "Cc1cccc(C(=O)N2CCC3(CC2)CSC2=C(O3)c3ccccc3C(=O)C2=O)c1", "melting point": "188 to 190 °C"}
{"Compound": "NS(=O)(=O)c1cccc(C(=O)Nc2ccc(-n3nc(C(F)(F)F)cc3C(F)(F)F)cc2)c1", "melting point": "177 to 178 °C"}
{"Compound": "O=C(O)Cc1ccc(OCCNC(=O)C2Cc3ccccc3N2S(=O)(=O)c2ccc(-c3ccc(F)cc3)cc2)c(Cl)c1 (stereo not given)", "melting point": "102 to 110 °C"}
